Hi there, I'd appreciate the recorded Ka for every entry that follows.
Biological target: the molecule itself
Experiment: AUC
Respond with the figure and its unit, in that order.

Prompt line: Specify reported Ka for the protein shown: AsiA protein (wild type) (natural protein, bacteriophage T4, UniProt P32267 1-90, looked up) MNKNIDTVREIITVASILIKFSREDIVENRANFIAFLNEIGVTHEGRKLNQNSFRKIVSELTQEDKKTLIDEFNEGFEGVYRYLEMYTNK
Response line: 2.8e+06 M⁻¹

Prompt line: Specify reported Ka for the protein shown: AsiA E39A mutant (natural protein, bacteriophage T4, UniProt P32267 1-90, looked up) MNKNIDTVREIITVASILIKFSREDIVENRANFIAFLNAIGVTHEGRKLNQNSFRKIVSELTQEDKKTLIDEFNEGFEGVYRYLEMYTNK
Response line: 5.7e+06 M⁻¹

Prompt line: Specify reported Ka for the protein shown: AsiA K20A mutant (natural protein, bacteriophage T4, UniProt P32267 1-90, looked up) MNKNIDTVREIITVASILIAFSREDIVENRANFIAFLNEIGVTHEGRKLNQNSFRKIVSELTQEDKKTLIDEFNEGFEGVYRYLEMYTNK
Response line: 2.1e+06 M⁻¹

Prompt line: Specify reported Ka for the protein shown: AsiA V14A mutant (natural protein, bacteriophage T4, UniProt P32267 1-90, looked up) MNKNIDTVREIITAASILIKFSREDIVENRANFIAFLNEIGVTHEGRKLNQNSFRKIVSELTQEDKKTLIDEFNEGFEGVYRYLEMYTNK
Response line: 820000 M⁻¹

Prompt line: Specify reported Ka for the protein shown: AsiA F21A mutant (natural protein, bacteriophage T4, UniProt P32267 1-90, looked up) MNKNIDTVREIITVASILIKASREDIVENRANFIAFLNEIGVTHEGRKLNQNSFRKIVSELTQEDKKTLIDEFNEGFEGVYRYLEMYTNK
Response line: 4.7e+06 M⁻¹

Prompt line: Specify reported Ka for the protein shown: AsiA I17A mutant (natural protein, bacteriophage T4, UniProt P32267 1-90, looked up) MNKNIDTVREIITVASALIKFSREDIVENRANFIAFLNEIGVTHEGRKLNQNSFRKIVSELTQEDKKTLIDEFNEGFEGVYRYLEMYTNK
Response line: 200000 M⁻¹

Prompt line: Specify reported Ka for the protein shown: AsiA I40A mutant (natural protein, bacteriophage T4, UniProt P32267 1-90, looked up) MNKNIDTVREIITVASILIKFSREDIVENRANFIAFLNEAGVTHEGRKLNQNSFRKIVSELTQEDKKTLIDEFNEGFEGVYRYLEMYTNK
Response line: 360000 M⁻¹

This collection of values is drawn from paper PMC2929534.
